Source of measurements: ChEMBL document CHEMBL1149637

tested on: Sclerotinia sclerotiorum; assay: Inhibition of Sclerotina sclerotiorums brassinin glucosyl transferase assessed as percent relative activity in relative to brassinin at 0.60 mM; set-up: scale not given: the % may be the effect or the level left
Measured Activity values are reported for all entries that follow.
Could you give me the number in %? Just the number is fine.

Recorded Activity, per entry:
CSC(=S)NCc1cc2ccccc2[nH]1
27
c1ccc(-c2c[nH]c3ccccc23)cc1
13
CSC(=S)NCc1csc2ccccc12
75

Q) What Activity value was documented for this compound, c1ccc2c(-c3nccs3)c[nH]c2c1 ?
A) 56

Q) What Activity value was documented for this compound, CSC(=S)NCc1coc2ccccc12 ?
A) 37

Q) What Activity value was documented for this compound, Fc1cccc2[nH]cc(-c3ccccc3)c12 ?
A) 29

Q) What Activity value was documented for this compound, CC(=O)Nc1cnc2ccccc2c1 ?
A) 100

Q) What Activity value was documented for this compound, c1ccc(-c2coc3ccccc23)cc1 ?
A) 42

Q) What Activity value was documented for this compound, c1ccc(-c2cc3ccccc3[nH]2)cc1 ?
A) 39

Q) What Activity value was documented for this compound, Fc1ccc2[nH]cc(-c3nccs3)c2c1 ?
A) 48

Q) What Activity value was documented for this compound, Fc1ccc2c(-c3ccccc3)c[nH]c2c1 ?
A) 13

Q) What Activity value was documented for this compound, Fc1ccc2c(-c3nccs3)c[nH]c2c1 ?
A) 63

Q) What Activity value was documented for this compound, CSC(=S)NCc1cc2ccccc2o1 ?
A) 29

Q) What Activity value was documented for this compound, CSC(=S)NCc1c[nH]c2ncccc12 ?
A) 50

Q) What Activity value was documented for this compound, COc1ccn2ncc(CNC(=S)SC)c2c1 ?
A) 99

Q) What Activity value was documented for this compound, COC(=O)c1cnn2ccc(OC)cc12 ?
A) 100
